Recorded measurements of Percent Absorbed, one per entry
- target_of_assay: Artificial Cell Surface (ACS): biotinylated cell surface proteins of human PBMCs bound to a streptavidin column (human)
- experiment_summary: adsorption on ACS column, MALDI-TOF ms
Kindly provide the numeric value in % only, without the unit symbol.

[[record]]
binder = "NECFLQHK [Trypsin-generated albumin fragment, SEQ ID NO 209]"
recorded_result = 22

[[record]]
binder = "YLSVVLNQLCVLHEKTPVSDRVTKCCCTESLVNRRPFSALEV [Asp-N-generated albumin fragment, SEQ ID NO 230]"
recorded_result = 37


Entry under review: RPCFSALEVDETYVPK [Trypsin-generated albumin fragment, SEQ ID NO 198] . Reported Percent Absorbed?
42

// query Percent Absorbed value for entry DRVTKCCTESLVNRRPCFSALEV [Asp-N-generated albumin fragment, SEQ ID NO 219]
87
